- system.tested: T1, human high affinity trimeric IL-2 receptor (CD25/CD122/CD132) (human, UniProt P01589 22-272; P14784 27-551; P31785 23-369)
- T1 sequence 1: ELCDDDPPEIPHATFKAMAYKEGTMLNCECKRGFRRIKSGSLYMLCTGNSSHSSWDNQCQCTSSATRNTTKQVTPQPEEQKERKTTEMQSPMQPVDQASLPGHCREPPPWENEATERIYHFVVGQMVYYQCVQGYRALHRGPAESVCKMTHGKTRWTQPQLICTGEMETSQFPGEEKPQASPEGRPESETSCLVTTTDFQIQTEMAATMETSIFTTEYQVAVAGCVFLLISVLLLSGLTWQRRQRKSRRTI
- T1 sequence 2: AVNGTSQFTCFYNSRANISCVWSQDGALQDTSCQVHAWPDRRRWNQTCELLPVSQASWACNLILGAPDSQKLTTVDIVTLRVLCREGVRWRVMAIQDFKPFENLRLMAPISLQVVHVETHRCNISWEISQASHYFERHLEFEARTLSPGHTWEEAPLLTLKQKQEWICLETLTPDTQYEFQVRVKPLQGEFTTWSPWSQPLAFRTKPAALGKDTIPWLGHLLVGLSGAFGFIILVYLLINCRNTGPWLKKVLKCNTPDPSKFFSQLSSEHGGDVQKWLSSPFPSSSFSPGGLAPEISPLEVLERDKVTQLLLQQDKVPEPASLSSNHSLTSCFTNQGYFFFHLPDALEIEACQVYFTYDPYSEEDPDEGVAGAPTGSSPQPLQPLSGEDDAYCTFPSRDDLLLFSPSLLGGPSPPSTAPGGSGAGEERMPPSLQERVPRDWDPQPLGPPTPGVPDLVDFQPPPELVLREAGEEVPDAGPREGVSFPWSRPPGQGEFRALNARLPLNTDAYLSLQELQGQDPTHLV
- T1 sequence 3: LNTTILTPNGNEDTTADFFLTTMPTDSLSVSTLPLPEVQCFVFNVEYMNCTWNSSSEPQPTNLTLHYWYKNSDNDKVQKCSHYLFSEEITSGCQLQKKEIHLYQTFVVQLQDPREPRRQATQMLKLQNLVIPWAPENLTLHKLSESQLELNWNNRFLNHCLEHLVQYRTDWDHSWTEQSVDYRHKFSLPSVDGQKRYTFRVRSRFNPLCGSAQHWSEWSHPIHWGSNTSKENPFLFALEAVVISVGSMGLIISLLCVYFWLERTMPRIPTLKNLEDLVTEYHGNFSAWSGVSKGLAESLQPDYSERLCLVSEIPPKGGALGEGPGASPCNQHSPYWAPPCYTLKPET
- test.protocol: cell-based or functional assay
endpoint.name: pSTAT5 ratio YT CD25/YT, dilution factor 4, lower table

binder	observed.measurement
RFH (ligand) cytokine: APTSSSTKKTQLQLEHLRLDLFMILNGINNYKNPKLTRMLTFKFYMPKKATELKHLQCLEEELKPLEEVLNLAQSKNFHLRPRDLISNINVIVLELKGSETTFMCEYADETATIVEFLNRWITFCHSIISTLT	0.8
RVH (ligand) cytokine: APTSSSTKKTQLQLEHLRLDLVMILNGINNYKNPKLTRMLTFKFYMPKKATELKHLQCLEEELKPLEEVLNLAQSKNFHLRPRDLISNINVIVLELKGSETTFMCEYADETATIVEFLNRWITFCHSIISTLT	0.9
RWH (ligand) cytokine: APTSSSTKKTQLQLEHLRLDLWMILNGINNYKNPKLTRMLTFKFYMPKKATELKHLQCLEEELKPLEEVLNLAQSKNFHLRPRDLISNINVIVLELKGSETTFMCEYADETATIVEFLNRWITFCHSIISTLT	0.8
hIL2 mutein REH (L18R, Q22E, Q126H) (ligand) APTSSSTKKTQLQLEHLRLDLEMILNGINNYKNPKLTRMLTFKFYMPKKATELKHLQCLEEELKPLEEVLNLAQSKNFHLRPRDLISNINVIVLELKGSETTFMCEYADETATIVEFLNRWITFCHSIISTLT	0.9
